# study-system: BRAFV600E (Homo sapiens, UniProt P15056, V600E)
# Sequence (P15056 whole entry V600E): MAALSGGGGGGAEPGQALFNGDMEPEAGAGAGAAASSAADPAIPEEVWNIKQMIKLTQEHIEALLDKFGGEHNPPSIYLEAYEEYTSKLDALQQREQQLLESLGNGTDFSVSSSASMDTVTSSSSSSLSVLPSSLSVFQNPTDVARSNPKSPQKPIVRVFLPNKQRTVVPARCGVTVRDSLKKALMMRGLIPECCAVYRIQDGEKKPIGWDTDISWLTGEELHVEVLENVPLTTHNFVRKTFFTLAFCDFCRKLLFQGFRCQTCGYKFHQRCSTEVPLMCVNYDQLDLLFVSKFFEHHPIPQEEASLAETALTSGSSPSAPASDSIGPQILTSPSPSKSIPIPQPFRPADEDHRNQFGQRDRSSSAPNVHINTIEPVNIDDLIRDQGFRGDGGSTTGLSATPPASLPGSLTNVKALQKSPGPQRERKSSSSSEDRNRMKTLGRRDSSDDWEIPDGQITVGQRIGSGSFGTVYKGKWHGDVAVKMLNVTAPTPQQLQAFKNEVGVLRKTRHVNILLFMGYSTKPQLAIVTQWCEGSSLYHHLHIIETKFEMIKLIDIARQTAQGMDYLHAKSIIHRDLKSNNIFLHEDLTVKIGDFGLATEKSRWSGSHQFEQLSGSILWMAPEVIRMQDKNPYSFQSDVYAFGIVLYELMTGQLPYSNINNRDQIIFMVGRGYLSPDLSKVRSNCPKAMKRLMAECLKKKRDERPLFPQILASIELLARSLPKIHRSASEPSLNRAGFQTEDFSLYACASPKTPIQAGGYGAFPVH
# protocol: Enzymatic activity (IC50) on BRAFV600E
# measurement-setup: enzymatic activity
measured-endpoint: log10 IC50 (log10 of the value in nM)
Note the log scale: values are log10 of IC50 expressed in nM.

Problem: Could you tell me which log10 IC50 is on file for O=C(Nc1cccc(-c2cc(C(=O)NCCN3CCNCC3)[nH]n2)c1)c1cc(N2CCOCC2)cc(C(F)(F)F)c1 [Compound 22a] ?
Solution: 3.32

Problem: Could you tell me which log10 IC50 is on file for "O=C(Nc1cccc(-c2cc(C(=O)OCCN3CCCCC3)[nH]n2)c1)c1cc(N2CCOCC2)cc(C(F)(F)F)c1" ?
Solution: 2.60

Problem: Could you tell me which log10 IC50 is on file for CN1CCN(c2cc(C(=O)Nc3cccc(-c4cc(C(=O)OCCN5CCOCC5)[nH]n4)c3)cc(C(F)(F)F)c2)CC1 [Compound 23d] ?
Solution: 2.83

Problem: Could you tell me which log10 IC50 is on file for Cc1cn(-c2cc(C(=O)Nc3cccc(-c4cc(C(=O)OCCN5CCOCC5)[nH]n4)c3)cc(C(F)(F)F)c2)cn1 [Compound 23c] ?
Solution: 2.52

Problem: Could you tell me which log10 IC50 is on file for Cc1cn(-c2cc(C(=O)Nc3cccc(-c4cc(C(=O)NCCN5CCOCC5)[nH]n4)c3)cc(C(F)(F)F)c2)cn1 [Compound 20c] ?
Solution: 2.96

Problem: Could you tell me which log10 IC50 is on file for O=C(Nc1cccc(-c2cc(C(=O)OCCN3CCOCC3)[nH]n2)c1)c1cc(N2CCOCC2)cc(C(F)(F)F)c1 [Compound 23a] ?
Solution: 2.83

Problem: Could you tell me which log10 IC50 is on file for Cc1nccn1-c1cc(C(=O)Nc2cccc(-c3cc(C(=O)OCCN4CCOCC4)[nH]n3)c2)cc(C(F)(F)F)c1 [Compound 23b] ?
Solution: 2.00

Problem: Could you tell me which log10 IC50 is on file for CN1CCN(c2cc(C(=O)Nc3cccc(-c4cc(C(=O)NCCN5CCOCC5)[nH]n4)c3)cc(C(F)(F)F)c2)CC1 [Compound 20d] ?
Solution: 3.43

Problem: Could you tell me which log10 IC50 is on file for Cc1nccn1-c1cc(C(=O)Nc2cccc(-c3cc(C(=O)NCCN4CCNCC4)[nH]n3)c2)cc(C(F)(F)F)c1 [Compound 22b] ?
Solution: 3.10

Problem: Could you tell me which log10 IC50 is on file for Cc1nccn1-c1cc(C(=O)Nc2cccc(-c3cc(C(=O)NCCN4CCOCC4)[nH]n3)c2)cc(C(F)(F)F)c1 [Compound 20b] ?
Solution: 2.99

Problem: Could you tell me which log10 IC50 is on file for O=C(Nc1cccc(-c2cc(C(=O)NCCN3CCOCC3)[nH]n2)c1)c1cc(N2CCOCC2)cc(C(F)(F)F)c1 [Compound 20a] ?
Solution: 3.45

Problem: Could you tell me which log10 IC50 is on file for Cc1cn(-c2cc(C(=O)Nc3cccc(-c4cc(C(=O)NCCN5CCNCC5)[nH]n4)c3)cc(C(F)(F)F)c2)cn1 [Compound 22c] ?
Solution: 3.18
